Values were extracted from ChEMBL document CHEMBL1201862.

tested on: ACHN; assay: NCI tumour cell line growth inhibition, 48 h
Active and inactive are the calls of the source. Rule as the data show it: active = GI50 up to about 1.1 µM and inactive = higher.
Outcome codes: active, inactive

- Compound: "N[C@@H]1c2c(Br)sc(Br)c2[C@H](O)[C@@H]1O"
  Tested system: "ACHN"
  Category label: "inactive"
- Compound: "CC1=NOC(=O)C1/N=N/c1ccc(Br)c(C)c1 (stereo not drawn)"
  Tested system: "ACHN"
  Category label: "inactive"
- Compound: "CCC1C(=O)OCc2c1cc1n(c2=O)C(CC)c2c-1nc1ccccc1c2Cl (stereo not drawn)"
  Tested system: "ACHN"
  Category label: "inactive"
- Compound: "CC(=O)OCC1OC(n2c(=O)n(-c3ccccc3)c(=O)c3cc(Br)cc(Br)c32)C(OC(C)=O)C(OC(C)=O)C1OC(C)=O (stereo not drawn)"
  Tested system: "ACHN"
  Category label: "inactive"
- Compound: "COc1ncnc2c(NC3OC(CO)C(O)C3O)ncnc12 (stereo not drawn)"
  Tested system: "ACHN"
  Category label: "active"
- Compound: "Brc1cc2c(cc1Br)CN(c1ccccc1)C2"
  Tested system: "ACHN"
  Category label: "inactive"
- Compound: "CCOC(=O)c1cc2c(ccc3cc(C(=O)OCC)[nH]c32)[nH]1"
  Tested system: "ACHN"
  Category label: "inactive"
- Compound: "C(#CP(c1ccccc1)c1ccccc1)P(C#CP(c1ccccc1)c1ccccc1)c1ccccc1"
  Tested system: "ACHN"
  Category label: "inactive"
- Compound: "CCCCN(CCCC)CCC(O)c1cc2c(Cl)cc(Cl)cc2c2cc(C(F)(F)F)ccc12 (stereo not drawn)"
  Tested system: "ACHN"
  Category label: "inactive"
- Compound: "Cc1ccccc1C1OC(=O)c2ccc3ccccc3c21 (stereo not drawn)"
  Tested system: "ACHN"
  Category label: "inactive"
- Compound: "C=C1C(=O)C23C(O)CC4C5(C)CCCC4(C(O)OC5)C2C(OC(C)=O)CC1C3O (stereo not drawn)"
  Tested system: "ACHN"
  Category label: "inactive"
- Compound: "CC(C)=CCC/C(C)=C/Cc1c(O)c(C)cc2c1[nH]c1cc(O)ccc12"
  Tested system: "ACHN"
  Category label: "inactive"
- Compound: "CCOC(=O)C1=CC(C)(C(=O)OCC)Nc2c(nc(OC)[nH]c2=O)N1 (stereo not drawn)"
  Tested system: "ACHN"
  Category label: "inactive"
- Compound: "O=C(C/C(=N\\NC(=O)C[n+]1ccccc1)C(=O)Nc1nc2ccc([N+](=O)[O-])cc2s1)CC(c1ccccc1)c1c(O)c2ccccc2oc1=O (stereo not drawn)"
  Tested system: "ACHN"
  Category label: "inactive"
- Compound: "C=C1C(=O)OC2C1C(OC(=O)/C(C)=C/C)CC(O)(CCl)C1C(O)C3OC3(C)C21O (stereo not drawn)"
  Tested system: "ACHN"
  Category label: "inactive"
- Compound: "CCOC(=O)Cn1c2ccccc2c(=O)c2cc(C)c(C)c(C#N)c21"
  Tested system: "ACHN"
  Category label: "inactive"
- Compound: "COC1OC2COC(=O)c3cc(O)c(O)c(O)c3-c3c(cc(O)c(O)c3O)C(=O)OC2C(O)C1O (stereo not drawn)"
  Tested system: "ACHN"
  Category label: "inactive"
- Compound: "O=C(Nc1nc(C23CC4CC(CC(C4)C2)C3)cs1)c1cc2ccccc2oc1=O"
  Tested system: "ACHN"
  Category label: "inactive"
- Compound: "COC1CCC(=O)N1CN(C(C)=O)c1ccc(C)cc1 (stereo not drawn)"
  Tested system: "ACHN"
  Category label: "inactive"
- Compound: "Brc1ccc2c(C3CN[C@@H](c4c[nH]c5cc(Br)ccc45)CN3)c[nH]c2c1 (stereo partly drawn)"
  Tested system: "ACHN"
  Category label: "inactive"
- Compound: "O=C1Nc2c(Cl)cc(Cl)cc2/C1=N/NC(=O)c1ccncc1"
  Tested system: "ACHN"
  Category label: "inactive"
- Compound: "COC(=O)C1C(=O)N(C)C(=O)N2CCCC12 (stereo not drawn)"
  Tested system: "ACHN"
  Category label: "inactive"
- Compound: "Cc1nc(=O)n2c(C)n[nH]c2c1C(=O)O"
  Tested system: "ACHN"
  Category label: "inactive"
- Compound: "c1ccc(C2OC3(CCC[C@H]4C[C@H]43)O[C@H]2c2ccccc2)cc1 (stereo partly drawn)"
  Tested system: "ACHN"
  Category label: "inactive"
- Compound: "O=[N+]([O-])c1cc2[nH]nnc2c2nonc12"
  Tested system: "ACHN"
  Category label: "inactive"
- Compound: "C[C@H]1[C@H](C)CC[C@]2(C(=O)OC3OC(CO)C(O)C(O)C3O)CC[C@]3(C)C(=CC[C@@H]4[C@@]5(C)C[C@@H](O)[C@@H]6OC(=O)c7cc(O)c(O)c(O)c7-c7c(cc(O)c(O)c7O)C(=O)OC[C@]6(CO)[C@@H]5CC[C@]43C)[C@H]12 (stereo partly drawn)"
  Tested system: "ACHN"
  Category label: "inactive"
- Compound: "Cc1c2ccccc2cc2ccc3oc([N+](=O)[O-])cc3c12"
  Tested system: "ACHN"
  Category label: "inactive"
- Compound: "CCOc1cc(NC(C)=O)ccc1C(=O)NN1C(=O)/C(=C/c2cc(OC)c(OC)c(OC)c2)N=C1c1ccccc1"
  Tested system: "ACHN"
  Category label: "inactive"
- Compound: "c1cc2nnnn2nc1N1CCCC1"
  Tested system: "ACHN"
  Category label: "inactive"
- Compound: "CSC1=NS(=O)(=O)c2cc(C(=O)NN(C)C(=O)c3cc4c(cc3Cl)SC(SC)=NS4(=O)=O)c(Cl)cc2S1"
  Tested system: "ACHN"
  Category label: "inactive"
- Compound: "C#C/C=C\\CCCC/C=C\\C#CC#CCCCC#CC#C[C@H](COS(=O)(=O)O)OS(=O)(=O)O"
  Tested system: "ACHN"
  Category label: "inactive"
- Compound: "CC(=O)O[C@H]1CC[C@@]2(C)C(=CC[C@H]3[C@@H]4C/C(=C\\c5ccncc5)[C@H](OC(C)=O)[C@@]4(C)CC[C@@H]32)C1"
  Tested system: "ACHN"
  Category label: "inactive"
- Compound: "O=C1NC(=O)C2C(=O)NC(=O)C1C2(c1ccccc1)c1ccc(Cl)cc1 (stereo not drawn)"
  Tested system: "ACHN"
  Category label: "inactive"
- Compound: "COc1ccc(OC)c2c1C(=O)C(O)=C(Cl)C2=O"
  Tested system: "ACHN"
  Category label: "inactive"
- Compound: "COC(=O)c1s/c(=N\\C(=S)N(C)C)n(-c2ccc(Cl)cc2)c1C(=O)OC"
  Tested system: "ACHN"
  Category label: "inactive"
- Compound: "N#Cc1c(O)c(/C=N/c2ccc(Cl)cc2)c(=O)n2c1[nH]c1ccccc12"
  Tested system: "ACHN"
  Category label: "inactive"
- Compound: "Cc1c([C@H](C)[C@@H]2NC[C@@H](C)C[C@H]2O)ccc2c1C[C@H]1[C@H]2CC=C2C[C@@H](O)CC[C@@]21C [VERATRAMINE]"
  Tested system: "ACHN"
  Category label: "inactive"
- Compound: "CS/C(c1ccccc1)=[N+](/C)[O-]"
  Tested system: "ACHN"
  Category label: "inactive"

---

test system: SNB-19; test: NCI tumour cell line growth inhibition, 48 h
Calls of active or inactive are those of the source. No stated cut-off is given here; in the data, active = GI50 up to about 1.1 µM and inactive = higher.
Listing of recorded GI50 by entry.

- Molecule: "N[C@@H]1C[C@H](N)c2c(Cl)sc(Cl)c21"
  GI50: "> 100 µM (inactive)"
- Molecule: "c1cc2nnnn2nc1N1CCCC1"
  GI50: "> 100 µM (inactive)"
- Molecule: "CCc1cc2c(O)c(c1)Cc1cc(CC)cc(c1O)Cc1cc(CC)cc(c1O)Cc1cc(CC)cc(c1O)Cc1cc(CC)cc(c1O)Cc1cc(CC)cc(c1O)Cc1cc(CC)cc(c1O)C2"
  GI50: "22.1 µM (inactive)"
- Molecule: "Cc1ccc(S(=O)(=O)C2=Cc3ccccc3C2(O)c2ccccc2)cc1 (centres undefined)"
  GI50: "43.8 µM (inactive)"
- Molecule: "CC(=O)OC12c3ccccc3C1CCCC21OCCCO1 (centres undefined)"
  GI50: "> 100 µM (inactive)"
- Molecule: "COc1ccc2c(-c3csc(-c4c[nH]c5ccc(Br)cc45)n3)c[nH]c2c1"
  GI50: "> 100 µM (inactive)"
- Molecule: "COc1cc([N+](=O)[O-])c(S(=O)(=O)O)cc1-n1nc(-c2ccccc2)n[n+]1-c1cc(S(=O)(=O)[O-])c([N+](=O)[O-])cc1OC"
  GI50: "> 100 µM (inactive)"
- Molecule: "COC1OC2COC(=O)c3cc(O)c(O)c(O)c3-c3c(cc(O)c(O)c3O)C(=O)OC2C(O)C1O (centres undefined)"
  GI50: "> 100 µM (inactive)"
- Molecule: "O/N=C1\\CCCCC1C(NO)c1ccccc1 (centres undefined)"
  GI50: "> 100 µM (inactive)"
